Reported values of Dose.FC.CTG for individual entries
Test system: ENR+CD organoids
Method summary: Primary screen: ATP (CellTiter-Glo 3D, CTG) cell number/viability, 2.5-D 384-well ENR+CD organoids;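 also: compounds given at plating and again on day 3 over a 6-day differentiation from ENR+CV stem-cell-enriched precursors, ATP measured on day 6, plate median as control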
Assay conditions: primary screen, dose 0.08 uM, FC relative to plate median
Endpoint: Dose.FC.CTG

Compound: O=[N+]([O-])c1ccc2c(c1)S(=O)(=O)C=C2 [Stattic]
Test target: ENR+CD organoids
Endpoint: Dose.FC.CTG
Readout value: −0.080 log2 fold change
//
Compound: O=C1NC(=O)/C(=C/c2cccc(C(F)(F)F)c2)S1 [SMI-4a]
Test target: ENR+CD organoids
Endpoint: Dose.FC.CTG
Readout value: −0.153 log2 fold change
//
Compound: O=C(NC(Cc1cc(=O)[nH]c2ccccc12)C(=O)O)c1ccc(Cl)cc1 (centres unmarked) [Rebamipide]
Test target: ENR+CD organoids
Endpoint: Dose.FC.CTG
Readout value: −0.256 log2 fold change
//
Compound: Cc1nn(-c2ccccc2)c(C)c1/C=N/N1CCN(Cc2ccccc2)CC1 [SANT-1]
Test target: ENR+CD organoids
Endpoint: Dose.FC.CTG
Readout value: 0.308 log2 fold change
//
Compound: O=C(Nc1ccncc1)c1cc([N+](=O)[O-])ccc1Cl [T0070907]
Test target: ENR+CD organoids
Endpoint: Dose.FC.CTG
Readout value: 0.112 log2 fold change
//
Compound: CC(C)(C)c1cc(NC(=O)Nc2ccc(-c3cn4c(n3)sc3cc(OCCN5CCOCC5)ccc34)cc2)no1 [Quizartinib (AC220)]
Test target: ENR+CD organoids
Endpoint: Dose.FC.CTG
Readout value: 0.351 log2 fold change
//
Compound: CNC(=O)c1ccccc1Nc1nc(Nc2ccc(N3CCOCC3)cc2OC)ncc1Cl [TAE226 (NVP-TAE226)]
Test target: ENR+CD organoids
Endpoint: Dose.FC.CTG
Readout value: −0.472 log2 fold change
//
Compound: Cc1cc(NC(=O)Nc2ccc(N(C)C)cc2)c2cc(F)cc(F)c2n1 [SB408124]
Test target: ENR+CD organoids
Endpoint: Dose.FC.CTG
Readout value: 0.410 log2 fold change
